Provenance of the data: paper PMC12064818

molecular target: P. pyralis FLuc (Photinus pyralis, UniProt P08659); assay: FLuc enzymatic luminescence assay, P. pyralis FLuc; assay type: biochemical; conditions: FLuc enzymatic assay; Clade S follow-up
Sequence (P08659 whole entry): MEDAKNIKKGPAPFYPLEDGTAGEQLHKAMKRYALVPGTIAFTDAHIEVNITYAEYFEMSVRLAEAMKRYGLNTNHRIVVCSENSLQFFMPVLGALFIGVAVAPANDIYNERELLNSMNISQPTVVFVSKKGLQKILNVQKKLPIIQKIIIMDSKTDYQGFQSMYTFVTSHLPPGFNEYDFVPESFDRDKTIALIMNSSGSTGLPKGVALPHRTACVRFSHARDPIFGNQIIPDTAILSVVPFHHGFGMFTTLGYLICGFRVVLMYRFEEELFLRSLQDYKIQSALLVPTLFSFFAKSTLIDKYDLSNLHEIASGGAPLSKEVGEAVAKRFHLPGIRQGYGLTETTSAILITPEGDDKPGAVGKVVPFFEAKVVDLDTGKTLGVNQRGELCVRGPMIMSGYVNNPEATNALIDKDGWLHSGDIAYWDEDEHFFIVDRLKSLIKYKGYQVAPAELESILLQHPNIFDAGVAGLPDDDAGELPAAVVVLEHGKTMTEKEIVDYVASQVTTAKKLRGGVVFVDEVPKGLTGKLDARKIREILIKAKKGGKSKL
Would you mind telling me the reported pIC50 or pSDR50 FLuc E of each entry?

Observe how each entry below is paired with its result.
P. pyralis FLuc (Photinus pyralis, UniProt P08659) data for Cc1ccc(C2Cn3cnc(C(=O)N4CCC(C(=O)NCc5ccc(F)cc5)CC4)c3CO2)cc1 (stereo not shown) ; its pIC50 or pSDR50 FLuc E: 5.01

pIC50 or pSDR50 FLuc E value, target or system P. pyralis FLuc (Photinus pyralis, UniProt P08659), for CC(C)c1ccc(NC(=O)C2CCN(C(=O)c3ncn4c3COC(c3ccccc3)C4)CC2)cc1 (stereo not shown) : 5.51

The observed pIC50 or pSDR50 FLuc E for Cc1ccc(C2Cn3cnc(C(=O)N4CCC(C(=O)NC(C)c5ccccc5)CC4)c3CO2)cc1 (stereo not shown) when tested with P. pyralis FLuc (Photinus pyralis, UniProt P08659) stands at 4.96

Further cases:
Measured on P. pyralis FLuc (Photinus pyralis, UniProt P08659), O=C(NCC1CCCO1)C1CCN(C(=O)c2ncn3c2COC(c2ccc(F)cc2)C3)CC1 (stereo not shown) has a documented pIC50 or pSDR50 FLuc E of 5.01

----------
target: FLuc-C-NLuc (firefly luciferase) (Photinus pyralis, UniProt P08659, form not given/L550V); test: SDR assay, FLuc-C-NLuc; conditions: 1 nM FLuc-C-NLuc; normalized activity; Log [Compound], M -5.91
Sequence (P08659 2-550 L550V, form open): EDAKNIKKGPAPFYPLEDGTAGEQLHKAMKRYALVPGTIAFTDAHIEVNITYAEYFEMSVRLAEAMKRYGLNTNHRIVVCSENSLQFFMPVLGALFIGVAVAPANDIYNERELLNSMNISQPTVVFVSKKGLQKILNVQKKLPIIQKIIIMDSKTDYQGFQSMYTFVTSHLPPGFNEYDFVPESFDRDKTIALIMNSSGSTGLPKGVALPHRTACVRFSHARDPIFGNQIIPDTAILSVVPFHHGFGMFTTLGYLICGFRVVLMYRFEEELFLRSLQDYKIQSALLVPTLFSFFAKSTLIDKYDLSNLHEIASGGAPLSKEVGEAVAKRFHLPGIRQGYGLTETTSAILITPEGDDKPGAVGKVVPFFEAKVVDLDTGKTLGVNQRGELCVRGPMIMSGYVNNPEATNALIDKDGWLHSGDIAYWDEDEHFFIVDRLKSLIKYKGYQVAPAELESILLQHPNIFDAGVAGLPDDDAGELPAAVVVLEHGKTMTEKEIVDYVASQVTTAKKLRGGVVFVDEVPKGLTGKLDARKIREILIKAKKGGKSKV
SDR + 10 mM ATP less than 40 is MET; SDR + 10 mM ATP greater than or equal to 40 is NOT MET.

Find out if reported SDR + 10 mM ATP for Cc1ccc(-n2ncc3c(N4CCCCCC4)ncnc32)cc1 is less than 40
MET

Threshold test, SDR + 10 mM ATP < 40: CC(CNC(=O)C1CCN(C(=O)c2ncn3c2COC(c2ccccc2)C3)CC1)c1ccccc1 (centres unmarked)
MET

Lab note: confirm whether the reported SDR + 10 mM ATP for this compound is below 40, equality not counting. compound: O=C(O)c1cccc2c1CCN2C(=O)Nc1ccc(F)cc1
NOT MET

is_below(SDR + 10 mM ATP, 40) for COc1ccc(-c2nc(-c3ccc(C(=O)O)cc3)no2)cc1 ?
NOT MET

Hello, I'm reviewing records and need to know if SDR + 10 mM ATP of Fc1ccc(-c2cn3cc(Cc4ccccc4)sc3n2)cc1 is below 40. Could you check?
MET

Lab log: compare recorded SDR + 10 mM ATP with 40; is it strictly lower for CC1CCCN(c2ncnc3c2cnn3-c2ccccc2)C1 (centres unmarked) ?
MET

Report whether reported SDR + 10 mM ATP is lower than 40 (strictly) for CNC(=O)c1cccc2c1CCN2C(=O)Nc1ccc(C)cc1
NOT MET

Please determine if O=C(O)CCSc1nnc(-c2ccc(Cl)cc2Cl)o1 is below 40 in terms of SDR + 10 mM ATP.
MET

----------
Field: SDR. Provide a value for each of the compounds that follow.
target: FLuc-C-NLuc (firefly luciferase) (Photinus pyralis, UniProt P08659, form not given/L550V); experiment: SDR assay, FLuc-C-NLuc; details: Log[Compound], M -4.96; absence of ATP
Numbers only.

These recorded examples may help you get a feel for the data.
Item: COc1ccc(NC(=O)C2CCN(C(=O)c3ncn4c3COC(c3ccccc3)C4)CC2)cc1Cl (centres unmarked) | System: FLuc-C-NLuc (firefly luciferase) (Photinus pyralis, UniProt P08659, form not given/L550V) | SDR: 15.10

For the compound CC(CNC(=O)C1CCN(C(=O)c2ncn3c2COC(c2ccccc2)C3)CC1)c1ccccc1 (centres unmarked) , the measured SDR on FLuc-C-NLuc (firefly luciferase) (Photinus pyralis, UniProt P08659, form not given/L550V) was 11.57

The measured SDR that O=C(Nc1cccc(F)c1)C1CCN(C(=O)c2ncn3c2COC(c2ccccc2)C3)CC1 (centres unmarked) showed for FLuc-C-NLuc (firefly luciferase) (Photinus pyralis, UniProt P08659, form not given/L550V) is 8.14

Provide SDR values for the following items, in order.
1. CC(NC(=O)C1CCN(C(=O)c2ncn3c2COC(c2ccc(F)cc2)C3)CC1)c1ccc(F)cc1 (centres unmarked)
2. CC1CCC(NC(=O)C2CCN(C(=O)c3ncn4c3COC(c3ccc(Cl)cc3)C4)CC2)CC1 (centres unmarked)

1: 1.78; 2: 2.34
